Source listed as patent EP4631937A1.

Collected half-life values appear next to each entry.
Test: Pharmacokinetic evaluation in mice by gavage
Assay type: in vivo
Conditions: mouse, plasma; CD1 male mice, oral, 30 mg/kg, 25 mM citrate buffer (pH 3) containing 5% Tween 80
Method: CD1 male mice were selected and the test compound was administered orally. The drug concentration in plasma at different time points was quantitatively determined by LC/MS/MS to evaluate the pharmacokinetic characteristics of the test drug in mice. Experimental materials: CD1 Mouse (male, 20-30 g, 6-8 weeks old, Zhejiang Weitong Lihua). […]

COMPOUND | U | half-life
O=C1CC[C@H](N2Cc3cc(C(=O)N[C@H](c4ccc(Cl)cn4)C4CCC4)ccc3C2=O)C(=O)N1 [crystalline form G] | h | 8.7
O=C1CC[C@H](N2Cc3cc(C(=O)N[C@H](c4ccc(Cl)cn4)C4CCC4)ccc3C2=O)C(=O)N1 [Amorphous] | h | 3.1

----------
assay: Pharmacokinetic evaluation in mice by gavage; assay type: in vivo; details: mouse, plasma; CD1 male mice, oral, 30 mg/kg, 25 mM citrate buffer (pH 3) containing 5% Tween 80

COMPOUND | U | AUC(0-inf)
O=C1CC[C@H](N2Cc3cc(C(=O)N[C@H](c4ccc(Cl)cn4)C4CCC4)ccc3C2=O)C(=O)N1 [Amorphous] | ng·h/mL | 35900
O=C1CC[C@H](N2Cc3cc(C(=O)N[C@H](c4ccc(Cl)cn4)C4CCC4)ccc3C2=O)C(=O)N1 [crystalline form G] | ng·h/mL | 10700

----------
Some molecules, each annotated with its measured Cmax.
assay: Pharmacokinetic evaluation in mice by gavage; format: in vivo; settings: mouse, plasma; CD1 male mice, oral, 30 mg/kg, 25 mM citrate buffer (pH 3) containing 5% Tween 80
ASSAY METRIC: Cmax (ng/mL)

MOLECULE | VALUE MEASURED
O=C1CC[C@H](N2Cc3cc(C(=O)N[C@H](c4ccc(Cl)cn4)C4CCC4)ccc3C2=O)C(=O)N1 [Amorphous] | 17800
O=C1CC[C@H](N2Cc3cc(C(=O)N[C@H](c4ccc(Cl)cn4)C4CCC4)ccc3C2=O)C(=O)N1 [crystalline form G] | 1370
